system: 46 cell lines representing 6 different malignancies; assay: Growth inhibition in a panel of cancer cell lines; assay type: cell-based; settings: 6 malignancies, read-out: median IC50
ASSAY METRIC: IC50 (µM)

>>> df
                                   molecule  assay_metric  endpoint_result
0  Nc1nc(N[C@H]2C[C@@H]3CC[C@H]2C3)sc1C(=O)c1ccccc1[N+](=O)[O-] (relative stereo) [MC180295]          IC50            0.171

====

assay: Pharmacokinetics in mice; assay type: in vivo; conditions: mouse, plasma, IV - 1mg/kg
ASSAY METRIC: Cmax

>>> print(df.to_string())
                                   molecule  assay_metric  endpoint_result
0  Nc1nc(N[C@H]2C[C@@H]3CC[C@H]2C3)sc1C(=O)c1ccccc1[N+](=O)[O-] (relative stereo) [MC180295]          Cmax        210 ng/mL
